system: Mouse phenylquinone writhing; assay: Mouse phenylquinone writhing inhibitory activity; format: in vivo, mouse (Slc: ICR); conditions: Mus musculus, po, 20 min, 50 mg/kg, orally; read-out: Inhibitory percentage (phenylquinone writhing)
Where a name gives a salt, the structure may show the parent alone.
measurement-kind: inhibition in vivo at 50 mg/kg (%)

1. O=C(NCCCSc1ccncc1)c1cccnc1 [Example 41] = 73
2. O=C(NCCCSc1ccncc1)c1ccsc1 [Example 54] = 58
3. O=C(NCCCSc1ccncc1)C(F)(F)F [Example 25, hydrochloride] = 60
4. CC(=O)N(CCCSc1ccncc1)Cc1ccccc1 [Example 75] = 54
5. O=C1c2ccccc2CN1CCCOc1ccncc1 [Example 101] = 66
6. O=C(c1ccccc1)N(CCCSc1ccncc1)Cc1ccccc1 [Example 77, hydrochloride] = 62
7. O=C(NCCCSc1ccncc1)C1CCCCC1 [Example 23, hydrochloride] = 58
8. O=C(NCCCOc1ccncc1)c1cccnc1 [Example 87, 4-(3-nicotinoylaminopropyloxy)pyridine] = 47
9. O=C1c2ccccc2C(=O)N1CCCCOc1ccncc1 [Example 84, 4-(4-phthalimidobutyloxy)pyridine] = 84

---

Biological target: cyclooxygenase (Rattus norvegicus)
Sequence (Q63921 27-602): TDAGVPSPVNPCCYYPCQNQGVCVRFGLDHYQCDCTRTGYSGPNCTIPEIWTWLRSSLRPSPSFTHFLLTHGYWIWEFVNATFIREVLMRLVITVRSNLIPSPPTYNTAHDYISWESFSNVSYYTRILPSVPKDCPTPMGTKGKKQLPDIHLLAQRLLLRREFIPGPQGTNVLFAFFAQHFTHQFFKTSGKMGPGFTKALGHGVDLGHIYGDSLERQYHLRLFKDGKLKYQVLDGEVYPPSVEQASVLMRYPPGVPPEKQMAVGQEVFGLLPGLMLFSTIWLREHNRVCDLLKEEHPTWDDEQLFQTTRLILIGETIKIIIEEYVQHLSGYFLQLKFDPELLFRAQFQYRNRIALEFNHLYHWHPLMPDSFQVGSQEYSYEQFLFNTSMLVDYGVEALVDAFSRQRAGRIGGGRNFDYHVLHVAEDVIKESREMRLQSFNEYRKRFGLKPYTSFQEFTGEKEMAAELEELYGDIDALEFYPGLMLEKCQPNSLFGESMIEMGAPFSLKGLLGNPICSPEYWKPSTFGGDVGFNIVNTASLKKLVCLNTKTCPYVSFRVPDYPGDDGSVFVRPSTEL
Experiment: Cyclooxygenase inhibitory activity (HHT formation from arachidonic acid in rat platelet-rich plasma)
pIC50: −log10 of the molar value. Where a name gives a salt, the structure may show the parent alone.
measurement-kind: pIC50

1. CCCCCC(=O)NCCCSc1ccncc1 [Example 15, 4-[3-(hexanoylamino)propylthio]pyridine] = 5.29
2. O=C1c2ccccc2CN1CCCOc1ccncc1 = 5.49
3. Cc1ccc(C(=O)NCCCSc2ccncc2)s1 = 5.46
4. O=C(NCCCSc1ccncc1)c1ccccc1O [Example 36, hydrochloride] = 5.22
5. O=C(Cc1cccs1)NCCCSc1ccncc1 = 5.06
6. CNC(=O)c1ccccc1C(=O)NCSc1ccncc1 = 4.89
7. CC(=O)N(CCCSc1ccncc1)Cc1cccs1 = 5.31
8. Cc1ccsc1C(=O)NCCCSc1ccncc1 = 5.38
9. O=C(NCCSc1ccncc1)c1cc2ccccc2s1 = 5.48
10. CCCCOc1ccc(C(=O)NCCCSc2ccncc2)cc1 [Example 35, hydrochloride] = 5.64

---

target: 5-Lipoxygenase (Rattus norvegicus, UniProt P12527); construct: rat basophilic leukemia cell suspension; endogenous in cells; assay: 5-Lipoxygenase inhibitory activity in rat basophilic leukemia cells; format: cell-based; details: 5-HETE; read-out: 5-Lipoxygenase inhibitory activity, 5-HETE IC50
Sequence (P12527 whole entry): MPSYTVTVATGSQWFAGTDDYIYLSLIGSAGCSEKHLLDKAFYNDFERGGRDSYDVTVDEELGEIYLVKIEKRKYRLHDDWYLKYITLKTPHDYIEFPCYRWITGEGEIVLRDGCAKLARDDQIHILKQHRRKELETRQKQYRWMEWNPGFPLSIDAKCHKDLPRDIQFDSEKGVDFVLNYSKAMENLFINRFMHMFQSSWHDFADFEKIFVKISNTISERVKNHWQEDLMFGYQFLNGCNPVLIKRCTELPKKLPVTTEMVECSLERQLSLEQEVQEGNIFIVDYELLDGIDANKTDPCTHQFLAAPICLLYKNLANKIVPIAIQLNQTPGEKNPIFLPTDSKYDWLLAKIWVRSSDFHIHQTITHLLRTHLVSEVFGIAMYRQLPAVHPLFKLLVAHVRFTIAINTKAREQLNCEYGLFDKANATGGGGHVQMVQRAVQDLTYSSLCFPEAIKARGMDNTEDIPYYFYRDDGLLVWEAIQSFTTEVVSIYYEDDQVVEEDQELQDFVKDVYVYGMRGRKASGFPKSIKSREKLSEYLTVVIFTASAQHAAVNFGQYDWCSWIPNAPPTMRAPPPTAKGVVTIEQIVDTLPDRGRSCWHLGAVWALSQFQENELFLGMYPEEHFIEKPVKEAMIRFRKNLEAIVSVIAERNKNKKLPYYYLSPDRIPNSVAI
pIC50: −log10 of the molar value. Counter-ions that a name gives are not always drawn.
measurement-kind: pIC50

1) CCCCCCCC/C=C\CCCCCCCC(=O)NCCCSc1ccncc1 [Example 21, 4-[3-(oleoylamino)propylthio]pyridine] = 4.67
2) O=C(c1ccccc1)N(CCCSc1ccncc1)Cc1ccccc1 [Example 77, hydrochloride] = 5.46
3) O=C1SC(=Cc2ccccc2)C(=O)N1CCCCSc1ccncc1 = 5.59
4) O=C1C(=Cc2ccccc2)SC(=S)N1CCCCSc1ccncc1 = 5.89
5) O=C1c2ccc([N+](=O)[O-])cc2C(=O)N1CSc1ccncc1 = 7.36
6) CCCCCCCCCCCCN(CCCSc1ccncc1)C(=O)C(F)(F)F = 5.62
7) O=C1SC(=Cc2ccc(Cl)cc2)C(=O)N1CCCCSc1ccncc1 = 5.74
8) CCCCCCCCCC(=O)NCCCSc1ccncc1 = 4.77
9) CCCCCCCCCC(=O)NCCCSc1ccccn1 [Example 3, 2-[3-(caprylamino)propylthio]pyridine] = 4.65

---

biological target: 5-Lipoxygenase (Rattus norvegicus, UniProt P12527); construct: rat basophilic leukemia cell suspension; endogenous in cells; experiment: 5-Lipoxygenase inhibitory activity in rat basophilic leukemia cells; format: cell-based; conditions: LTB4; read-out: 5-Lipoxygenase inhibitory activity, LTB4 IC50
pIC50: −log10 of the molar value. Where a name gives a salt, the structure may show the parent alone.
measurement-kind: pIC50

1. O=C1c2ccccc2C(=O)N1CCSc1ccccn1 [Example 4, 2-(2-phthalimidoethylthio)pyridine] = 4.93
2. CCCCCCCCCCCCN(CCCSc1ccncc1)C(=O)C(F)(F)F [Example 94] = 5.70
3. O=C1SC(=Cc2ccccc2)C(=O)N1CCCCSc1ccncc1 [Example 150] = 5.60
4. O=C(c1ccccc1)N(CCCSc1ccncc1)Cc1ccccc1 [Example 77, hydrochloride] = 5.49
5. CCCCCCCCCC(=O)NCCCSc1ccncc1 [Example 1] = 4.79
6. O=c1c2ccccc2n(Cc2ccccc2)c(=O)n1CCCCSc1ccncc1 [Example 149] = 5.66
7. O=C(c1cc2ccccc2s1)N1CCC(Sc2ccncc2)CC1 [Example 133] = 5.37
8. O=C1c2ccccc2CN1CCCCSc1ccncc1 [Example 109] = 5.92
9. O=C1c2ccc([N+](=O)[O-])cc2C(=O)N1CSc1ccncc1 [Example 95] = 7.48
10. CCCCCCCC/C=C\CCCCCCCC(=O)NCCCSc1ccncc1 [Example 21, 4-[3-(oleoylamino)propylthio]pyridine] = 4.79
11. O=C1SC(=Cc2ccccc2)C(=O)N1CCSc1ccncc1 [Example 155] = 5.43
12. O=C1C(=Cc2ccccc2)SC(=S)N1CCCCSc1ccncc1 [Example 153] = 6.10
13. CCCCCCCCCCCC(=O)NCCCSc1ccncc1 [Example 17, 4-[3-(lauroylamino)propylthio]pyridine] = 4.84
14. O=C1SC(=Cc2ccc(Cl)cc2)C(=O)N1CCCCSc1ccncc1 [Example 151] = 5.96
15. CCCCCCCCCC(=O)NCCCSc1ccccn1 [Example 3, 2-[3-(caprylamino)propylthio]pyridine] = 4.76
16. O=C(NCCCCSc1ccncc1)c1cc2ccccc2s1 [Example 128] = 5.27

---

target: cyclooxygenase (Rattus norvegicus, UniProt Q63921); experiment: Cyclooxygenase inhibitory activity (HHT formation from arachidonic acid in rat platelet-rich plasma)
Where a name gives a salt, the structure may show the parent alone.
Label class 1 when IC50 < 4 µM; otherwise class 0.

1) O=C(NCCCSc1ccncc1)c1ccc(-c2ccccc2)cc1 [Example 26, hydrochloride] = class 1
2) O=C1c2ccccc2C(O)N1CCSc1ccncc1 (centres unmarked) [Example 104] = class 0
3) O=C(NCCCSc1ccncc1)c1cc2ccccc2s1 [Example 57] = class 1
4) O=C(/C=C/c1cnc2ccccc2c1)NCCCSc1ccncc1 [Example 44] = class 1
5) CCCCCCCCCC(=O)NCCCCCCSc1ccncc1 [Example 10] = class 1
6) O=C(NCCCSc1ccncc1)c1cccnc1 [Example 41] = class 0
7) O=C(NCCSc1ccncc1)c1cccs1 [Example 122, 4-(2-thenoylaminoethylthio)pyridine] = class 1
8) O=C(NCCCSc1ccncc1)c1ccccn1 [Example 42] = class 0
9) O=C(NCCCSc1ccncc1)c1cnccn1 [Example 124] = class 0
10) CN(CCCSc1ccncc1)C(=O)c1cccs1 [Example 51] = class 0
11) O=C(NCCSc1ccncc1)c1ccccc1O [Example 168] = class 1
12) O=C1[C@H]2CC=CC[C@H]2C(=O)N1CSc1ccncc1 [Example 96] = class 0
13) CCCCCCCCCC(=O)NCCSc1ccncc1 [Example 7] = class 0
14) CCCCc1ccc(C(=O)NCCCSc2ccncc2)cc1 [Example 34, hydrochloride] = class 1
15) O=C(N(CCCSc1ccncc1)Cc1ccccn1)C(F)(F)F [Example 78, dihydrochloride] = class 0
16) O=C1c2ccccc2C(=O)N1CCCCOc1ccncc1 [Example 84, 4-(4-phthalimidobutyloxy)pyridine] = class 0
17) Cc1ccc(C(=O)NCCCSc2ccncc2)cc1 [Example 31] = class 0
18) O=C(NCCCSc1ccncc1)c1ccncc1 [Example 43] = class 0
19) O=C(NCCCSc1ccncc1)C(F)(F)F [Example 25, hydrochloride] = class 1
20) O=c1c2ccccc2n(CCCCSc2ccncc2)c(=O)n1CCCCSc1ccncc1 [Example 147] = class 1

Taken from patent US5457106A.
